Give IC50 for every item shown.
measurement.target: Glutamate receptor ionotropic, AMPA (Rattus norvegicus, UniProt P19490+P19491+P19492+P19493)
assay.comment: Inhibitory activity against Ionotropic glutamate receptor AMPA using [3H]AMPA as radioligand
One number for each entry, in µM.

Cc1onc(O)c1[C@@H](N)C(=O)O	72

Then this compound:
Give the measured IC50 of NC(C(=O)O)c1cc(=O)[nH]o1 (stereo not given) .
76

----------
Can you tell me IC50 for the items I'm about to list?
measurement.target: Glutamate NMDA receptor
assay.comment: Inhibitory activity against N-methyl-D-aspartate glutamate receptor using [3H]CPP as radioligand

CN[C@H](CC(=O)O)C(=O)O [N-METHYL-D-ASPARTIC ACID (NMDA)]	35 µM
Cc1onc(O)c1[C@@H](N)C(=O)O	3.7 µM
NC(C(=O)O)c1cc(=O)[nH]o1 (centres undefined)	> 100 µM

Consider the record given below.
What value of measured IC50 is listed for `Cc1onc(O)c1[C@H](N)C(=O)O` ?
61 µM

----------
measurement.target: Glutamate receptor ionotropic, AMPA (Rattus norvegicus, UniProt P19490+P19491+P19492+P19493)
assay.comment: Inhibitory activity against Ionotropic glutamate receptor AMPA using [3H]AMPA as radioligand
parameter.measured: IC50

Before answering, review these 2 worked examples.
Cc1onc(O)c1[C@H](N)C(=O)O	> 100 µM
CN[C@H](CC(=O)O)C(=O)O	> 100 µM

Then there is this molecule:
// lookup IC50 for Cc1o[nH]c(=O)c1C(N)C(=O)O (stereo not drawn)
> 100 µM

Each recorded value in this set is attributed to ChEMBL document CHEMBL1129284.
